MEASURED_ON: T1, human galanin receptor 3 (hGalR3) (human, UniProt O60755 1-368)
T1 sequence (looked up): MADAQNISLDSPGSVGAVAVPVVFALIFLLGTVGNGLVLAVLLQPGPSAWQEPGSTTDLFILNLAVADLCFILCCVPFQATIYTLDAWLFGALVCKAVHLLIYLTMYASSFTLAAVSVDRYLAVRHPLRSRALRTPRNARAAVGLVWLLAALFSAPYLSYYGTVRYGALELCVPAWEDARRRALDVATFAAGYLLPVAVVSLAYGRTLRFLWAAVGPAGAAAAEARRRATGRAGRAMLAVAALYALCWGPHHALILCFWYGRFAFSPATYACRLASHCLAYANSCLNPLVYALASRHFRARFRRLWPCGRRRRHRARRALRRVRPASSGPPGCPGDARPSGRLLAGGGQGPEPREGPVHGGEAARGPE
ASSAY_REMARKS: cell-based or functional assay
Positions of bridges follow the written chain, without caps; N, C: chain ends. No end group written: not given here.
REPORTED_METRIC: EC50, receptor activation (SRE-Luc assay) (nM)
One number for each entry, in nM.

BINDER	READOUT_UNITS	OBSERVED_VALUE
CWTPQAMLYLKGCQ-NH2 (disulfide 1-13; N-terminus assumed; SMILES CSCC[C@@H]1NC(=O)[C@H](C)NC(=O)[C@H](CCC(N)=O)NC(=O)[C@@H]2CCCN2C(=O)[C@H]([C@@H](C)O)NC(=O)[C@H](Cc2c[nH]c3ccccc23)NC(=O)[C@@H](N)CSSC[C@@H](C(=O)N[C@@H](CCC(N)=O)C(N)=O)NC(=O)CNC(=O)[C@H](CCCCN)NC(=O)[C@H](CC(C)C)NC(=O)[C@H](Cc2ccc(O)cc2)NC(=O)[C@H](CC(C)C)NC1=O) [LH101]	nM	1560

Pending binder:
Reported EC50, receptor activation (SRE-Luc assay) ( NWTCQAMLYLKGCQ-NH2 (disulfide 4-13; N-terminus assumed; SMILES CSCC[C@@H]1NC(=O)[C@H](C)NC(=O)[C@H](CCC(N)=O)NC(=O)[C@@H](NC(=O)[C@@H](NC(=O)[C@H](Cc2c[nH]c3ccccc23)NC(=O)[C@@H](N)CC(N)=O)[C@@H](C)O)CSSC[C@@H](C(=O)N[C@@H](CCC(N)=O)C(N)=O)NC(=O)CNC(=O)[C@H](CCCCN)NC(=O)[C@H](CC(C)C)NC(=O)[C@H](Cc2ccc(O)cc2)NC(=O)[C@H](CC(C)C)NC1=O) [LH102] ) = 1500

These data points were gathered from patent US20180289766A1.
